Kindly supply the reported TGI values for the records listed here.
tested on: M14 melanoma; assay: NCI tumour cell line growth inhibition, 48 h

Briefly, TGI measured for `CC1(C)Cc2c(cnn2-c2ccc(C(F)(F)F)cc2)-c2nc(-c3ccc(O)cc3)[nH]c21` : 33.9 µM

Briefly, TGI measured for `Cc1cc2c(c(S(=O)(=O)c3ccc(Cl)cc3[N+](=O)[O-])c1)NCCC2` : > 100 µM

Briefly, TGI measured for `O=c1cc(-c2ccc3ccccc3c2)[nH]c2ncc(Cl)cc12` : > 100 µM

Briefly, TGI measured for `O=c1cc(-c2ccccc2)nc(-n2[nH]c3c(c2=O)CCCC3)[nH]1` : 26.8 µM

Briefly, TGI measured for `CCOC(=O)CC[C@H](NC(=O)c1[nH]cnc1/N=N/N(C)C)C(=O)OCC` : > 100 µM

Briefly, TGI measured for `O=C(Cc1n[nH]c(=O)c2ccccc12)OCc1c(Cl)cccc1Cl` : > 100 µM

Briefly, TGI measured for `O=c1[nH]cnc2c1sc(=S)n2-c1ccccc1` : > 100 µM

---

test system: A498 renal; assay: NCI tumour cell line growth inhibition, 48 h
measurementLabel: GI50

Briefly, GI50 measured for CCCCC(CCCCCC(CCCC)C1NC(C)Cc2cc(OC)c(OC)cc21)C1NC(C)Cc2cc(OC)c(OC)cc21 (configuration not stated) : 1410 nM

Briefly, GI50 measured for `COc1cc2c(/C=C3/C(=O)Nc4c3ccc3ccccc43)c(Cl)n(C)c2cc1C` : 666 nM

Briefly, GI50 measured for `COc1ccc(-c2cn[nH]c2-c2cc(OC)c(OC)c(OC)c2)cc1OCc1ccccc1` : 2080 nM

Briefly, GI50 measured for `Nc1n[nH]c2cccc(C#Cc3cccc(NC(=O)c4ccc(N5CCOCC5)c(C(F)(F)F)c4)c3)c12` : 384 nM

Briefly, GI50 measured for `Oc1c(Br)cc(Br)c2ccc(Cn3cc(-c4ccc(C(F)(F)F)cc4)nn3)nc12` : 3360 nM

Briefly, GI50 measured for `O=C1/C(=C/c2ccccc2)CN(C(=O)CCN2CCC(=NO)CC2)C/C1=C\c1ccccc1` : 1670 nM

Briefly, GI50 measured for `O=C(Nc1ncc(Cc2ccccc2)s1)c1sc2ccccc2c1Cl` : 286 nM

Briefly, GI50 measured for `Nc1ccc(S(=O)(=O)c2ccc(N)cc2)cc1` : 64800 nM

Briefly, GI50 measured for `ClCc1ccccc1Cn1cnc2c(Cl)nc(Cl)nc21` : 2050 nM

Briefly, GI50 measured for `O=C(c1ccco1)c1nc2ccc(Cl)cc2[n+]([O-])c1C(F)(F)F` : > 100000 nM

Briefly, GI50 measured for CC1=C(C(=O)Nc2ccc(F)c(Cl)c2)C(c2cccc(Cl)c2)NC(=S)N1 (configuration not stated) : 7300 nM

Briefly, GI50 measured for `COc1cc(/C=C/C(=O)c2ccc(Nc3nc(NCCO)nc(N4CCOCC4)n3)cc2)cc(OC)c1OC` : 1320 nM

---

tested on: UO-31 renal; assay: NCI tumour cell line growth inhibition, 48 h
measurementLabel: TGI

Briefly, TGI measured for `O=C1/C(=C/c2ccco2)N=C(c2ccccc2)N1c1ccc(S(=O)(=O)Nc2nccs2)cc1` : > 100 µM

Briefly, TGI measured for COC(=O)C(Cc1c[nH]c2ccccc12)NP(=O)(O)OCC1OC(n2ccc(N)nc2=O)C(O)C1O (centres undefined) : > 100 µM

Briefly, TGI measured for `COC(=O)Cc1cc2c(cc1C(=O)c1ccc(N)cc1)OCO2` : > 100 µM

Briefly, TGI measured for `Cc1cc2c(c(S(=O)(=O)c3ccc(Cl)cc3[N+](=O)[O-])c1)NCCC2` : > 100 µM

Briefly, TGI measured for `Nc1ccc(S(=O)(=O)c2ccc(N)cc2)cc1` : > 100 µM

Briefly, TGI measured for `COC(=O)[C@]12CC[C@H]3CN(C(=O)OCc4ccccc4)[C@H]([C@H]31)[C@H](c1ccccc1)N2` : > 100 µM

Briefly, TGI measured for CC1=C(C(=O)Nc2ccc(F)c(Cl)c2)C(c2cccc(Cl)c2)NC(=S)N1 (centres undefined) : 14.6 µM

Briefly, TGI measured for `CCCCCCCCCCc1c2nc(c(CCCCCCCCCC)c3ccc([nH]3)c(CCCCCCCCCC)c3ccc([nH]3)c(CCCCCCCCCC)c3nc1C=C3)C=C2` : > 100 µM

Briefly, TGI measured for `S=C(S)NCCNC(=S)S.[Cu+2]` : > 100 µM
